B1: 2M8U (parent)
chain: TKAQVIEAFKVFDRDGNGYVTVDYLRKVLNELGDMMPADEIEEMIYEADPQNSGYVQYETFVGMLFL

- Variants of: B1
- test summary: folding stability dG (cDNA display proteolysis); higher = more stable
- test conditions: PBS, room temperature
Documented folding stability dG across a set of variants

{"mutant code": "G33N", "folding stability dG (kcal/mol)": 3.18}
{"mutant code": "D49T", "folding stability dG (kcal/mol)": 2.83}
{"mutant code": "L65M", "folding stability dG (kcal/mol)": 3.67}
{"mutant code": "Q51L", "folding stability dG (kcal/mol)": 3.53}
{"mutant code": "G18V", "folding stability dG (kcal/mol)": 2.61}
{"mutant code": "Y24W", "folding stability dG (kcal/mol)": 3.24}
{"mutant code": "E59Y", "folding stability dG (kcal/mol)": 3.82}
{"mutant code": "Y24A", "folding stability dG (kcal/mol)": 4.19}
{"mutant code": "E42Q", "folding stability dG (kcal/mol)": 3.37}
{"mutant code": "T60W", "folding stability dG (kcal/mol)": 3.58}
{"mutant code": "T60Q", "folding stability dG (kcal/mol)": 3.55}
{"mutant code": "D34M", "folding stability dG (kcal/mol)": 4.24}
{"mutant code": "Y58V", "folding stability dG (kcal/mol)": 2.67}
{"mutant code": "T21W", "folding stability dG (kcal/mol)": 3.22}
{"mutant code": "S53I", "folding stability dG (kcal/mol)": 3.21}
{"mutant code": "V22H", "folding stability dG (kcal/mol)": 3.5}
{"mutant code": "L29C", "folding stability dG (kcal/mol)": 3.16}
{"mutant code": "T60Y", "folding stability dG (kcal/mol)": 3.43}
{"mutant code": "E47A", "folding stability dG (kcal/mol)": 3.76}
{"mutant code": "K27I", "folding stability dG (kcal/mol)": 3.66}
{"mutant code": "Y46R", "folding stability dG (kcal/mol)": 3.66}
{"mutant code": "E59K", "folding stability dG (kcal/mol)": 3.23}
